# Target entity: DLL4 (human, UniProt Q9NR61)
# Sequence (Q9NR61 27-524): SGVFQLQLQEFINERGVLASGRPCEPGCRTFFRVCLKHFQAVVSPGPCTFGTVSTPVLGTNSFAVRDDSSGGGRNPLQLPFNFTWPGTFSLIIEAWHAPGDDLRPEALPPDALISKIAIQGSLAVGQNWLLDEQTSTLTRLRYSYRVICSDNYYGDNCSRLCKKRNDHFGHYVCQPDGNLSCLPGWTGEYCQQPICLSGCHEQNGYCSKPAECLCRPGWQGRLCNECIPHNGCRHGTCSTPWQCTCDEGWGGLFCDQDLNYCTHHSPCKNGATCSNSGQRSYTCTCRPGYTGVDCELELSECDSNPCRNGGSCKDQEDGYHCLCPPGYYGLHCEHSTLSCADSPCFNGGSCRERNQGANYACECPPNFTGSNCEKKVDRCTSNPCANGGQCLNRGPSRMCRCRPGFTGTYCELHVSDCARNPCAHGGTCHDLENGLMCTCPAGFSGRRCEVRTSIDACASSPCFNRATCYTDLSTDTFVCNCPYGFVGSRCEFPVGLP
# Method: ELISA
Measurement label: EC50 (nM)

| Binder | Unit spec | Experimental result |
| --- | --- | --- |
| DVD514 DLL4 arm (antibody, V domains shown, DVD-Ig inner) VH: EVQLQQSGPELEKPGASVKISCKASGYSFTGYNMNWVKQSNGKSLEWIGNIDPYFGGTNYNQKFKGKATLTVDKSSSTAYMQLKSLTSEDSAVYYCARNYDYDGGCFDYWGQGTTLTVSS VL: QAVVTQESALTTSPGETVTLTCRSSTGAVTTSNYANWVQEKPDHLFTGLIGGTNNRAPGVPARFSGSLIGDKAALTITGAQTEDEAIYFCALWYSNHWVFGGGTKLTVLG | nM | 21.1 |
| DVD497 DLL4 arm (antibody, V domains shown, DVD-Ig outer) VH: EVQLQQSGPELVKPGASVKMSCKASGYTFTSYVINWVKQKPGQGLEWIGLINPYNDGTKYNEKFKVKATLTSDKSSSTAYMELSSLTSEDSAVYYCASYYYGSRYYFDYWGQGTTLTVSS VL: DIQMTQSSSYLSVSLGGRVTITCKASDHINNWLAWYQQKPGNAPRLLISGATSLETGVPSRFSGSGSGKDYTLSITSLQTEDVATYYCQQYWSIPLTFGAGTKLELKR | nM | 0.53 |
| DVD474 DLL4 arm (antibody, DVD-Ig inner) chain 1: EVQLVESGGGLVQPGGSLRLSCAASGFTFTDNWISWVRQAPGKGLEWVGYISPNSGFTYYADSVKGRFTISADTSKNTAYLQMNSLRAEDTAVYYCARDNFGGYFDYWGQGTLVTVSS chain 2: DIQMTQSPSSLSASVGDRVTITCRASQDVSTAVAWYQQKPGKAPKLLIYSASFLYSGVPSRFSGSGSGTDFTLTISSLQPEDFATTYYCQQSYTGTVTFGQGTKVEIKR | nM | 0.57 |
